System: SF-539 CNS
Assay: NCI tumour cell line growth inhibition, 48 h
OBSERVATION_TYPE: TGI

COMPOUND	ASSAYED_TARGET	REPORTED_RESULT
O=NN/C(=C1\Nc2ccc([N+](=O)[O-])cc2NC1=O)C(O)c1ccc([N+](=O)[O-])cc1 (configuration not stated)	SF-539 CNS	> 100 µM
CN(C)CCNC1=CC(=O)c2nc3ccccc3c3ccnc1c23	SF-539 CNS	15.5 µM
COCCN(CCOC)C(=O)COc1c2cc(C(C)(C)C)cc1Cc1cc(C(C)(C)C)cc(c1OCC(=O)N(CCOC)CCOC)Cc1cc(C(C)(C)C)cc(c1OCC(=O)N(CCOC)CCOC)Cc1cc(C(C)(C)C)cc(c1OCC(=O)N(CCOC)CCOC)Cc1cc(C(C)(C)C)cc(c1OCC(=O)N(CCOC)CCOC)C2	SF-539 CNS	5.9 µM
C/C=N\n1c(C)c(C#N)c(C#N)c1N	SF-539 CNS	> 100 µM
COC(=O)C(Cc1c(C2Nc3ccccc3C2CC(NC(C)=O)C(=O)OC)[nH]c2ccccc12)NC(C)=O (configuration not stated)	SF-539 CNS	> 100 µM
CCOC(=O)C(=O)Nc1c(CC)cccc1C(C)CC (configuration not stated)	SF-539 CNS	> 100 µM
CC1OC(OC2C(CO)OC(O[C@H]3CC[C@@]4(C)C(=CC[C@H]5[C@@H]6C[C@@H]7O[C@](O)(CC[C@H](C)COC8OC(CO)C(O)C(O)C8O)[C@@H](C)[C@@H]7[C@@]6(C)CC[C@@H]54)C3)C(OC3OC(C)C(O)C(O)C3O)C2O)C(O)C(O)C1O (some centres not stated)	SF-539 CNS	> 21.6 µM

====

System: 786-0 renal
Test: NCI tumour cell line growth inhibition, 48 h

MOLECULE	GI50
CC1OC(n2c3ccccc3c3c4c(c5c6ccccc6[nH]c5c32)C(=O)N(CCN2CCOCC2)C4=O)CC(O)C1O (stereo unspecified)	1.49 µM
C/C(=C\CCc1ccsc1)CC/C=C(\C)CCCN1CCC(CO)CC1	1.77 µM
COc1cccc(Cn2c(-c3nonc3NC(C)=O)nc3ccccc32)c1	10.4 µM
O=C(NCCNc1nccc(-c2c(-c3ccc(F)cc3)nc3sccn23)n1)c1ccccc1	15.3 µM
CCn1c(-c2nonc2N)nc2cncc(C(=O)NCCNC)c21	12.1 µM
Cc1sc(NC2=NC(=O)/C(=C\c3ccccc3)S2)nc1-c1nc(NC2=NC(=O)/C(=C\c3ccccc3)S2)sc1C	11.4 µM

====

System: IGROV1 ovarian
Assay: NCI tumour cell line growth inhibition, 48 h
Listed here are molecules together with their documented TGI.

MOLECULE	TGI
CCOC(=O)C(=O)Nc1c(CC)cccc1C(C)CC (stereo unspecified)	> 100 µM
Cc1ccc([N+](=O)[O-])cc1S(=O)(=O)Nc1ccc(C2=NN(C(=O)c3ccccc3)C(c3cccs3)C2)cc1 (stereo unspecified)	> 100 µM
COC(=O)CS(=O)c1ccccc1 (stereo unspecified)	54 µM
CCCC1=C(C(=O)OCC)C(c2ccccc2OC)C(C#N)=C(N)O1 (stereo unspecified)	36.4 µM
CCCC(=O)NC(C(=O)OCC)(N1CCOCC1)C(F)(F)F (stereo unspecified)	> 100 µM
COCCN(CCOC)C(=O)COc1c2cc(C(C)(C)C)cc1Cc1cc(C(C)(C)C)cc(c1OCC(=O)N(CCOC)CCOC)Cc1cc(C(C)(C)C)cc(c1OCC(=O)N(CCOC)CCOC)Cc1cc(C(C)(C)C)cc(c1OCC(=O)N(CCOC)CCOC)Cc1cc(C(C)(C)C)cc(c1OCC(=O)N(CCOC)CCOC)C2	10.1 µM
C/C(=N\Nc1nc2ccccc2s1)c1cnccn1	7.28 µM
COC(=O)C(Cc1ccccc1)NC(=O)Cn1ccnc1[N+](=O)[O-] (stereo unspecified)	> 100 µM
COc1cc(Nc2nc3cc(C(F)(F)F)ccc3nc2-c2ccccc2)cc(OC)c1OC	> 100 µM
O=C1C2=Cc3ccccc3OC2(O)Oc2ccc(O)cc21 (stereo unspecified)	> 100 µM
Cc1c(C(=O)/C=C/c2c(Cl)cccc2Cl)c(=O)n(-c2ccccc2)n1C	> 100 µM
COc1cc2c(cc1OC)-c1c(oc3cc(OC4OC(CO)C(O)C(O)C4O)c(OC)cc3c1=O)C(O)O2 (stereo unspecified)	> 100 µM
CC1(C)CCCCCCC2CC2CCCCCC(C)(C)C1=O (stereo unspecified)	> 100 µM
CC(=O)N1CC(=O)NC1=S	> 100 µM
Cc1cn([C@H]2C[C@@H]3[C@@H](COC(CCl)N3O)O2)c(=O)[nH]c1=O (stereo partly specified)	> 100 µM
COC(=O)c1cc(C)ccc1C1CN=NC12Cc1cccc(C)c1C2=O (stereo unspecified)	> 100 µM
c1ccc(CCN2CCOCC2)nc1	> 100 µM
O=C(O)c1cccc2cccc(C(=O)O)c12.[Hg]	29.2 µM
COC(=O)c1ccc(COC(=O)N2C=CCC2C(=O)O)cc1 (stereo unspecified)	> 100 µM
Clc1ccc(C2=NN[C@H](c3cn(-c4ccccc4)nc3-c3ccccc3)C2)cc1	33.2 µM
NC(=NCCN1CCCCCCC1)NO	92.6 µM

Data provenance: PubChem BioAssay (NCI)
